- assayRemarks: Drug concentration in Sprague-Dawley rat brain at 48 mg/kg, ip after 0.5 hrs by LC-MS/MS analysis
- Format: ADME, organism-based
- conditionLabel: read-out: Drug uptake
quantityKind: concentration at 0.5 h (ng/g)

>>> df
                                smilesentry            quantitykind  recordedresult
0  O=C(NO)c1cc(OCc2ccc(-c3ccc(Cl)cc3)cc2)no1  concentration at 0.5 h            2120

---

- assayRemarks: Ratio of drug uptake in Sprague-Dawley rat brain to plasma at 48 mg/kg, ip after 30 mins by LC-MS/MS analysis
- Type: ADME, organism-based
- conditionLabel: read-out: BPR
quantityKind: Kp at 0.5 h

                                smilesentry  quantitykind  recordedresult
0  O=C(NO)c1cc(OCc2ccc(-c3ccc(Cl)cc3)cc2)no1   Kp at 0.5 h            2.94

---

- assayRemarks: Drug concentration in Sprague-Dawley rat brain at 48 mg/kg, ip after 4 hrs by LC-MS/MS analysis
- Type: ADME, organism-based
- conditionLabel: read-out: Drug uptake
quantityKind: concentration at 4 h (ng/g)

>>> df
                                smilesentry          quantitykind  recordedresult
0  O=C(NO)c1cc(OCc2ccc(-c3ccc(Cl)cc3)cc2)no1  concentration at 4 h            1300

---

- assayRemarks: Drug concentration in Sprague-Dawley rat plasma at 48 mg/kg, ip after 0.5 hrs by LC-MS/MS analysis
- Assay type: ADME, organism-based
quantityKind: concentration at 0.5 h

>>> print(df.to_string())
                                smilesentry            quantitykind  recordedresult
0  O=C(NO)c1cc(OCc2ccc(-c3ccc(Cl)cc3)cc2)no1  concentration at 0.5 h       709 ng/mL

---

Reported IC50 is given for each of the following molecules.
- subjectOfTest: UniProt P17405
- Sequence (P17405 whole entry): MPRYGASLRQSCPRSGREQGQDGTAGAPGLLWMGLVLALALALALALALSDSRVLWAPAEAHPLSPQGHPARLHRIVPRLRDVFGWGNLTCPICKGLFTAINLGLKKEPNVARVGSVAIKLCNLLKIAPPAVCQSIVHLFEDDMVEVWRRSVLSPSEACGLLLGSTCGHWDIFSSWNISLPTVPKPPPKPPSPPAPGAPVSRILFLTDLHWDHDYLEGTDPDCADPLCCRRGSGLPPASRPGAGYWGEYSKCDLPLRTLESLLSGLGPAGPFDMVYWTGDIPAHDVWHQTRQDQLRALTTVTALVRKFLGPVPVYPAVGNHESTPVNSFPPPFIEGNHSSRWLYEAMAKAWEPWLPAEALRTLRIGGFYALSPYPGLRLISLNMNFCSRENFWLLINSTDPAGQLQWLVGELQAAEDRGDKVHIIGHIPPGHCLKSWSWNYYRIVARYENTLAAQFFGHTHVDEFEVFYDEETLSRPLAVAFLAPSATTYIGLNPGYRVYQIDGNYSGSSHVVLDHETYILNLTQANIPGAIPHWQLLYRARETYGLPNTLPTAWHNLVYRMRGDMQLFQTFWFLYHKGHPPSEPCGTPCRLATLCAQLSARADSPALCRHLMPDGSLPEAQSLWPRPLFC
- assayRemarks: Inhibition of acid sphingomyelinase (unknown origin)
quantityKind: IC50 (nM)

In [3]: df
Out[3]:
                                smilesentry   subjectoftest  quantitykind  displayunit  recordedresult
0           CCCCCCCC(N)(P(=O)(O)O)P(=O)(O)O  UniProt P17405          IC50           nM              20
1  CCOc1ccc2oc(-c3cc(Br)cc4c3OCOC4)c(N)c(=O)c2c1  UniProt P17405          IC50           nM            3100

---

- subjectOfTest: Sphingomyelin phosphodiesterase (Homo sapiens, UniProt P17405)
- assayRemarks: Inhibition of human Huh7 cell derived acid sphingomyelinase using NBD-sphingomyelin as substrate after 30 mins by fluorescence based assay
pIC50: −log10 of the molar value.
Examples of compounds with documented pIC50 follow.
quantityKind: pIC50

>>> print(df.to_string())
                                smilesentry  relationsymbol  recordedresult
0  O=C(NO)c1cccc(OCc2ccc(-c3noc(-c4ccc(Br)cc4)n3)cc2)c1               <            4.00
1  COc1ccc(C(=O)NO)cc1OCc1noc(-c2ccc(Cl)cc2)n1               =            4.67
2  O=C(NO)c1cccc(OCc2ccc(-c3noc(Cc4ccccc4)n3)cc2)c1               =            5.11

---

- subjectOfTest: Sphingomyelin phosphodiesterase (Homo sapiens)
- assayRemarks: Inhibition of recombinant human acid sphingomyelinase (His62 to Pro628 residues) using NBD-sphingomyelin as substrate after 30 mins by fluorescence based assay
pIC50: −log10 of the molar value.
quantityKind: pIC50

>>> print(df.to_string())
                                smilesentry  recordedresult
0               CCCCCCCCCCOc1cc(C(=O)NO)on1            5.66
1  O=C(NO)c1cccc(OCc2ccc(-c3ccc(Cl)cc3)cc2)c1            6.44
2  O=C(NO)c1cc(OCc2ccc(-c3ccc(Cl)cc3)cc2)no1            5.47
3  COc1ccc(C(=O)NO)cc1OCc1ccc(-c2ccc(Cl)cc2)cc1            5.09
4     O=C(NO)c1cc(OCc2ccc(-c3ccccc3)cc2)no1            5.39
5  O=C(NO)c1cccc(OCc2ccc(-c3noc(CCc4ccccc4)n3)cc2)c1            5.37
6  O=C(NO)c1cccc(OCc2ccc(-c3noc(Cc4ccccc4)n3)cc2)c1            5.31
7            CCCCCCCCCCOc1cc(C(=O)NO)ccc1OC            6.05
8  COc1ccc(C(=O)NO)cc1OCc1ccc(-c2cccnc2)cc1            5.42

---

- assayRemarks: Ratio of drug uptake in Sprague-Dawley rat brain to plasma at 48 mg/kg, ip after 4 hrs by LC-MS/MS analysis
- Assay type: ADME, organism-based
- conditionLabel: read-out: BPR
quantityKind: Kp at 4 h

                                smilesentry  recordedresult
0  O=C(NO)c1cc(OCc2ccc(-c3ccc(Cl)cc3)cc2)no1            9.55

---

- assayRemarks: Ratio of drug uptake in Sprague-Dawley rat brain to plasma at 48 mg/kg, ip after 2 hrs by LC-MS/MS analysis
- Assay type: ADME, organism-based
- conditionLabel: read-out: BPR
quantityKind: Kp at 2 h

                                smilesentry  quantitykind  recordedresult
0  O=C(NO)c1cc(OCc2ccc(-c3ccc(Cl)cc3)cc2)no1     Kp at 2 h            6.49

---

- assayRemarks: Drug concentration in Sprague-Dawley rat plasma at 48 mg/kg, ip after 4 hrs by LC-MS/MS analysis
- Format: ADME, organism-based
quantityKind: concentration at 4 h

>>> print(df.to_string())
                                smilesentry  recordedresult
0  O=C(NO)c1cc(OCc2ccc(-c3ccc(Cl)cc3)cc2)no1       144 ng/mL

---

- subjectOfTest: Sphingomyelin phosphodiesterase (Homo sapiens)
- assayRemarks: Inhibition of human Huh7 cell derived acid sphingomyelinase using NBD-sphingomyelin as substrate after 30 mins by fluorescence based assay
quantityKind: IC50 (µM)

In [3]: df
Out[3]:
                                smilesentry  relationsymbol  recordedresult
0  O=C(NO)c1cc(OCc2ccc(-c3ccc(Cl)cc3)cc2)no1               =            0.32
1  O=C(NO)c1cccc(OCc2ccc(-c3noc(-c4cccc(F)c4)n3)cc2)c1               >             100
2  COc1ccc(C(=O)NO)cc1OCc1ccc(-c2ccc(Cl)cc2)cc1               =            0.34
3  COc1ccc(C(=O)NO)cc1OCc1ccc(-c2noc(-c3ccc(Br)cc3)n2)cc1               >             100
4  O=C(NO)c1cccc(OCc2ccc(-c3ccc(Cl)cc3)cc2)c1               =            8.96

---

- assayRemarks: Drug concentration in Sprague-Dawley rat plasma at 48 mg/kg, ip after 2 hrs by LC-MS/MS analysis
- Type: ADME, organism-based
quantityKind: concentration at 2 h

In [3]: df
Out[3]:
                                smilesentry  recordedresult
0  O=C(NO)c1cc(OCc2ccc(-c3ccc(Cl)cc3)cc2)no1       762 ng/mL
